The reader will find reported pIC50 values listed item by item below.
# system_under_test: SARS-Cov-2 3CLpro (Severe acute respiratory syndrome coronavirus 2)
# Construct: SARS-Cov-2 3CLpro and HRV3C Duplex Assay
# assay_protocol: SARS-Cov-2 3CLpro and HRV3C duplex assay (SAMDI-MS): 3CLpro
# Type: biochemical
# test_settings: 3CLpro, duplex assay, 30 mins preincubation; class symbols; read-out: SARS-Cov-2 IC50
pIC50: −log10 of the molar value.

# annotated cases, reported pIC50 shown
compound: O=C(NC1CC1)C(=O)[C@H](C[C@@H]1CCNC1=O)NC(=O)[C@@H]1CC2(CCN1C(=O)c1nc(-c3ccccc3)cs1)CC2
pIC50: 6.70 to 7.70
//
compound: Cn1ncc2c1CC(C(=O)N1CCC3(CC3)C[C@H]1C(=O)NC(C[C@@H]1CCNC1=O)C(=O)C(=O)NC1CC1)CC2 (stereo partly drawn)
pIC50: 6.70 to 7.70
//
compound: O=C(NC1CC1)C(=O)C(C[C@@H]1CCNC1=O)NC(=O)[C@@H]1[C@@H]2C[C@@H](CC23CC3)N1C(=O)c1nc(-c2ccccc2)cs1 (stereo partly drawn)
pIC50: 5.70 to 6.70
//
compound: Cn1cc(C(=O)N2CCC3(CC3)C[C@H]2C(=O)N[C@@H](C[C@@H]2CCNC2=O)C(=O)C(=O)NC2CC2)c2ccccc21
pIC50: 6.70 to 7.70
//
compound: Cn1nc(C(=O)N2CCC3(CC3)C[C@H]2C(=O)NC(C[C@@H]2CCNC2=O)C(=O)C(=O)NC2CC2)cc1-c1ccccc1 (stereo partly drawn)
pIC50: 5.70 to 6.70

Next up:
Input line: // lookup pIC50 for O=C(NC1CC1)C(=O)[C@H](C[C@@H]1CCNC1=O)NC(=O)[C@@H]1CC2(CCN1C(=O)c1ccc3ccccc3c1)CC2
Output line: > 7.70
